- Experiment notes: Plasma clearance in Sprague-Dawley rat at 1 mg/kg, iv and 3 mg/kg, po
Readout name: clearance (mL/min/kg)

{"Smiles entry": "COc1ccc(-c2cc3onc(-c4ccncc4)c3c(=O)n2C)cc1", "Endpoint unit": "mL/min/kg", "Numeric result": 1}

* * *

- Experiment notes: Oral bioavailability in Sprague-Dawley rat at 10 mg/kg
- Assay type: ADME, organism-based
- Details: in vivo, 3 mg/kg, in the assay text read “3 mg/kg” for “10 mg/kg”
Readout name: bioavailability (%)

{"Smiles entry": "COc1ccc(-c2cc3onc(-c4ccncc4)c3c(=O)n2C)cc1", "Numeric result": 65}

* * *

- Tgt: Metabotropic glutamate receptor 7 (Rattus norvegicus)
- Sequence (P35400 whole entry): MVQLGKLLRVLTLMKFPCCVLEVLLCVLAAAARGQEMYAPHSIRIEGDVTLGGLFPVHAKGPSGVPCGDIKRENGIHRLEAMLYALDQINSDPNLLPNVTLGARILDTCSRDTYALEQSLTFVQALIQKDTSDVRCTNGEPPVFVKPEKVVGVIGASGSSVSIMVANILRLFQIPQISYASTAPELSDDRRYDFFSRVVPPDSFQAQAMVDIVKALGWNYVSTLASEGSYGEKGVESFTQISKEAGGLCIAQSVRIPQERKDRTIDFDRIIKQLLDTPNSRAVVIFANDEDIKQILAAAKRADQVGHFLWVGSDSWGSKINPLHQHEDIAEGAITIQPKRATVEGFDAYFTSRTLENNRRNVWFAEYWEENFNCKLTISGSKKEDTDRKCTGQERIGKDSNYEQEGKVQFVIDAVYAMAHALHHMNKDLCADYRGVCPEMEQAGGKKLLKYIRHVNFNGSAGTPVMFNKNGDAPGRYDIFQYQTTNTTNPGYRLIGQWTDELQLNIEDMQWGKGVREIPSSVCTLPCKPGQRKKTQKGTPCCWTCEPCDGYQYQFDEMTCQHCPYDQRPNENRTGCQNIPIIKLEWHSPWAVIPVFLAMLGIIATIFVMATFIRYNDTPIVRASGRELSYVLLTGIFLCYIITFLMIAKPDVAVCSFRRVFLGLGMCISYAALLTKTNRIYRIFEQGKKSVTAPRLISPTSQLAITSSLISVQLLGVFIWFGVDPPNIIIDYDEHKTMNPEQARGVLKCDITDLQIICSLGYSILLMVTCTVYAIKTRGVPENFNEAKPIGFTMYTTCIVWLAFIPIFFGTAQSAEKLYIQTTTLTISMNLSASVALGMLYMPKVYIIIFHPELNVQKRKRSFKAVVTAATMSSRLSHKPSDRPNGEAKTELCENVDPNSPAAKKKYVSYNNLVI
- Experiment notes: Antagonist activity at rat mGluR7 expressed in CHO cells assessed as inhibition of LAP-induced intracellular calcium mobilization by FLIPR
pIC50: −log10 of the molar value.
Everything with pIC50 lower than 7 is No; everything else, including exactly 7, is Yes.

{"Smiles entry": "Cn1c(-c2ccccc2)cc2onc(-c3ccccn3)c2c1=O", "Assigned class": "No"}
{"Smiles entry": "Cc1ccc(-c2cc3onc(-c4ccccc4)c3c(=O)n2C)cc1", "Assigned class": "Yes"}
{"Smiles entry": "COc1ccc(-c2noc3cc(-c4ccccc4)n(C)c(=O)c23)cc1", "Assigned class": "Yes"}
{"Smiles entry": "COc1cccc(-c2noc3cc(-c4ccccc4)n(C)c(=O)c23)c1", "Assigned class": "Yes"}
{"Smiles entry": "COc1ccccc1-c1noc2cc(-c3ccccc3)n(C)c(=O)c12", "Assigned class": "Yes"}
{"Smiles entry": "CN(C)c1cccc(-c2cc3onc(-c4ccccc4)c3c(=O)n2C)c1", "Assigned class": "Yes"}
{"Smiles entry": "Cn1c(-c2ccc3c(c2)OCO3)cc2onc(-c3ccccc3)c2c1=O", "Assigned class": "Yes"}
{"Smiles entry": "Cn1c(-c2ccccc2)cc2onc(-c3cccnc3)c2c1=O", "Assigned class": "No"}
